Property: melting point; scope: individual compounds

Solved entries:
>  <compound>
Cc1cccc(Nc2nnc(C3OCOCO3)c3ccccc23)c1

>  <measurement>
161 °C

$$$$
>  <compound>
COC(=O)Cc1c(Cl)nc(-c2ccccc2)n1Cc1ccc(C)cc1

>  <measurement>
92 to 95 °C

$$$$
>  <compound>
O=C(O)C(=O)c1ccc(OCC(=O)N2CCC(c3ccccc3)CC2)cc1

>  <measurement>
209 to 210 °C

$$$$
>  <compound>
CCOC(=O)C=Cc1ccc(C(=O)c2ccc3c(c2)C2(C)C4(C)CCC(C4)C2(C)O3)cc1 (centres undefined)

>  <measurement>
115 to 116 °C

$$$$
>  <compound>
CCOC(=O)C1CCN(c2nc(C)nc3c2C(C)C(=O)N3c2c(C)cc(Br)cc2C)CC1 (centres undefined)

>  <measurement>
159 to 161 °C

$$$$

IN: Param item = CC1(C)Oc2ccc3nc(C#N)ccc3c2C(NCCc2ccccc2)C1O (centres undefined) ; retrieve measured melting point.
OUT: 93 to 96 °C

IN: Next up: `COc1ccc(CCNc2nccc(-c3cccc(NC(=O)CCCN4C=CC=NC4)c3)n2)cc1OC`
OUT: 121 to 122 °C

IN: Next up: `COc1cc(Nc2c(C#N)cnc3cc(-c4cccc(NC(C)=O)c4)ccc23)c(Cl)cc1Cl`
OUT: 262 to 263 °C

IN: Next up: `Cc1ccc(C(N)=O)cc1Br`
OUT: 178 to 179 °C

---

endpoint.name: melting point (°C)

>  <molecule>
CC(C)(C)c1cc(C(C)(CCC(=O)O)c2ccc(O)c(C(C)(C)C)c2)ccc1O

>  <melting point, °C>
155

$$$$
>  <molecule>
COc1ccc2ccc(O)c(C=O)c2c1

>  <melting point, °C>
126

$$$$
>  <molecule>
CCOC(=O)CCCCCCCCOC1OC(CO)C(O)C(O)C1NC(C)=O (stereo not given)

>  <melting point, °C>
112

$$$$
>  <molecule>
CCCCOc1ccc(S(=O)(=O)C2(C(=O)NO)CCN(Cc3ccncc3)CC2)cc1

>  <melting point, °C>
118

$$$$

---

endpoint.name: melting point

Solved entries:
>  <molecule>
Cc1ccc(-c2ccc3c(c2)CCc2nn(-c4ccccn4)c(O)c2-3)cc1

>  <melting point>
177 to 178 °C

$$$$
>  <molecule>
O=S1(=O)N=C(c2ccc(Cl)cc2)N(c2cc(Cl)cc(Cl)c2)c2ccncc21

>  <melting point>
284 to 286 °C

$$$$
>  <molecule>
N#Cc1cnc2c(sc3c([N+](=O)[O-])cccc32)c1Nc1cccc(Br)c1

>  <melting point>
288 to 290 °C

$$$$
>  <molecule>
O=C(CCS)N[C@@H](Cc1ccccc1)C(=O)O

>  <melting point>
106 to 107 °C

$$$$
>  <molecule>
O=C(Nc1ccc2cc(CN3CCCC3)ccc2c1)N1CCC(c2ccccc2)CC1

>  <melting point>
193 to 195 °C

$$$$

IN: Param item = Cc1cccc2c1SC(C(F)(F)F)C(C(=O)O)=C2 (centres undefined) ; retrieve measured melting point.
OUT: 224 to 225 °C

IN: Next up: COC(=O)c1ccc(C2OC23Cc2ccccc2C3=O)cc1 (centres undefined)
OUT: 160 to 163 °C

IN: Next up: CC(=O)Nc1cc(C(=O)OC2OC(COC(=O)c3ccccc3)C(OC3OC4COC(c5ccncc5)OC4C(O)C3O)C(O)C2O)ccc1Cl (centres undefined)
OUT: 260 to 262 °C

IN: Next up: CC(=O)NC1CN(C)S(=O)(=O)c2sc(S(N)(=O)=O)cc21 (centres undefined)
OUT: 252 to 253 °C
